- Experimental Protocol: Toxicity liver stage against HepG2, at 10uM
- Format: cell-based
- Design: test concentration 10 uM, cell line HepG2-A16-CD81EGFP
- Condition: human, HepG2-A16-CD81EGFP cells; read-out: INHIBITION
Metric Name: cytotoxicity at 10 µM (%)
Could you give me the number in %? Just the number is fine.

Please review the entries below; each comes with its answer.
INSERT INTO assay_data (molecule, metric_name, assay_result) VALUES
  ('CCn1nnc2c1CCN(C(=O)c1ccc3c(c1)OCO3)C2COC (stereo not drawn)', 'cytotoxicity at 10 µM', 6.43),
  ('COc1cccc(SCC(=O)N2CCC(N3CCCC3=O)CC2)c1', 'cytotoxicity at 10 µM', -9.41),
  ('CC(=O)N1CCc2c(nc(-c3ccccn3)nc2N(C)CC(O)CO)C1 (stereo not drawn)', 'cytotoxicity at 10 µM', -12.2),
  ('O=C(Nc1ncn(Cc2cccc(Br)c2)n1)C1CCC1', 'cytotoxicity at 10 µM', 11.4),
  ('CC1(C)OC(=O)N(CCCC(=O)c2ccc(F)cc2)C1=O', 'cytotoxicity at 10 µM', -4.87);

Which cytotoxicity at 10 µM value is on record for O=S(=O)(C1CC1)N1CCO[C@H]2[C@H](Oc3cccnc3)CC[C@@H]21 ?
-0.24

Which cytotoxicity at 10 µM value is on record for Cc1cc(NCc2cc3n(n2)CCCN(C(=O)C2CCC2)C3)nc(N)n1 ?
-146

###

The entries below come with measured cytotoxicity at 10 µM values attached.
- Experimental Protocol: Toxicity liver stage against HepG2, at 10uM
- Type: cell-based
- Design: test concentration 10 uM, cell line HepG2-A16-CD81EGFP
- Condition: human, HepG2-A16-CD81EGFP cells; read-out: INHIBITION
Could you give me the number in %? Just the number is fine.

INSERT INTO measurements (compound, display_unit, assay_result) VALUES
  ('CN(CC(=O)N1CCC(Oc2ccccc2)CC1)c1cnccn1', '%', 2.12),
  ('Cc1n[nH]c(C2CN(C(=O)c3ccc(Cl)o3)CCO2)n1 (configuration not stated)', '%', -5.59),
  ('CC(C)c1nc(CN2CCCC2CN2CCCC2)cs1 (configuration not stated)', '%', 6.72),
  ('CN(Cc1ccccc1)c1ncccc1CNC1CCCC1', '%', -8.8);

Which cytotoxicity at 10 µM value is on record for Cc1ncc2c(n1)CCN(C(=O)Cc1c(C)noc1C)C2 ?
-8.55

Which cytotoxicity at 10 µM value is on record for O=c1cc(N2CCNCC2)cnn1Cc1noc(C2CCCC2)n1 ?
-53.5

Which cytotoxicity at 10 µM value is on record for CCC(C)(N)c1nc(=O)c(C)c(C)[nH]1 (configuration not stated) ?
-1.82

Which cytotoxicity at 10 µM value is on record for CSC(C)C(=O)NCc1ccnc(N2CCN(C)CC2)c1 (configuration not stated) ?
-15.3

Which cytotoxicity at 10 µM value is on record for CC1CS(=O)(=O)CCN1CCCc1ccc(C(F)(F)F)cc1 (configuration not stated) ?
0.715

Which cytotoxicity at 10 µM value is on record for CC(=O)c1cccc(-c2nc3c([nH]2)CCNC3)c1F ?
-50.5

Which cytotoxicity at 10 µM value is on record for Cn1cc(S(=O)(=O)N2CCC(OCCCc3ccccc3)C2)cn1 (configuration not stated) ?
8.93

Which cytotoxicity at 10 µM value is on record for COCc1nc2n(n1)CCCC2Nc1nc(C2CC2)ns1 (configuration not stated) ?
17

###

The entries below come with measured cytotoxicity at 10 µM values attached.
- Experimental Protocol: Toxicity liver stage against HepG2, at 10uM
- Format: cell-based
- Parameters: test concentration 10 uM, cell line HepG2-A16-CD81EGFP
- Condition: human, HepG2-A16-CD81EGFP cells; read-out: INHIBITION
Could you give me the number in %? Just the number is fine.

Which cytotoxicity at 10 µM value is on record for O=S(=O)(NCC1CCN(c2cnccn2)CC1)c1ccc(F)c(Cl)c1 ?
11.6

Which cytotoxicity at 10 µM value is on record for O=S(=O)(Cc1ccccc1Cl)NC(CO)c1ccco1 (stereo unspecified) ?
-6.86

Which cytotoxicity at 10 µM value is on record for Cc1noc(C)c1C(=O)N1CCC2(CC1)c1nc[nH]c1CCN2C ?
7.9

Which cytotoxicity at 10 µM value is on record for CCC(NS(=O)(=O)c1ccc(C(=O)NC2CC2)cc1)c1cnn(C)c1 (stereo unspecified) ?
7.64

Which cytotoxicity at 10 µM value is on record for COc1ccc(CN2CCOC[C@H](OCCC(C)C)C2)cc1 ?
-4.04

Which cytotoxicity at 10 µM value is on record for COc1c(C2CCCN2C(=O)c2cccc(C)n2)c(C)nn1C (stereo unspecified) ?
-7.52

Which cytotoxicity at 10 µM value is on record for CCCNC(=O)N1CCCC2(CCC(=O)N(CCc3c[nH]cn3)C2)C1 (stereo unspecified) ?
2.67

###

- Experimental Protocol: Toxicity liver stage against HepG2, at 10uM
- Type: cell-based
- Design: test concentration 10 uM, cell line HepG2-A16-CD81EGFP
- Condition: human, HepG2-A16-CD81EGFP cells; read-out: INHIBITION
Metric Name: cytotoxicity at 10 µM (%)
Could you give me the number in %? Just the number is fine.

Please review the entries below; each comes with its answer.
INSERT INTO results (compound, metric_name, display_unit, assay_result) VALUES
  ('COc1cnc(CSc2nnc(C)s2)cc1OCC(N)=O', 'cytotoxicity at 10 µM', '%', 8.52),
  ('COC(=O)Cn1c(=O)[nH]c2cn(-c3ccc(F)cc3)c(=O)n21', 'cytotoxicity at 10 µM', '%', 1.09),
  ('CCc1cnc(CN(C)C(=O)NC2CCN(C)C2=O)s1 (configuration not stated)', 'cytotoxicity at 10 µM', '%', -0.786);

Which cytotoxicity at 10 µM value is on record for CNC(=O)COC1COC2(CCN(c3ccc(C)nn3)CC2)C1 (configuration not stated) ?
-0.419

Which cytotoxicity at 10 µM value is on record for CS(=O)(=O)NC[C@]12COC[C@H]1CN(C(=O)c1ccoc1)C2 ?
4.34

Which cytotoxicity at 10 µM value is on record for O=C(NCC1CCCN1CCc1ccccc1)NCC1(O)CCC1 (configuration not stated) ?
-3.06

Which cytotoxicity at 10 µM value is on record for N#Cc1ccc(CNC2CCN(CCc3ccncc3)CC2)cc1 ?
-5.03

###

- Experimental Protocol: Toxicity liver stage against HepG2, at 10uM
- Assay type: cell-based
- Set-up: test concentration 10 uM, cell line HepG2-A16-CD81EGFP
- Condition: human, HepG2-A16-CD81EGFP cells; read-out: INHIBITION
The entries below come with measured cytotoxicity at 10 µM values attached.
Could you give me the number in %? Just the number is fine.

Please review the entries below; each comes with its answer.
INSERT INTO results (molecule, metric_name, display_unit, assay_result) VALUES
  ('CC(C)N1[C@H](Cn2cncn2)C[C@@H]2CN(Cc3nccn3C)CC[C@@H]21', 'cytotoxicity at 10 µM', '%', -106),
  ('O=C(COCc1ccccc1)N1CCN(Cc2ccccc2F)C(=O)C1', 'cytotoxicity at 10 µM', '%', -3.19),
  ('CN(C)C(CNC(=O)NCCc1cccc(O)c1)c1ccco1 (stereo unspecified)', 'cytotoxicity at 10 µM', '%', -4.36),
  ('O=C(c1cc(Br)ccc1-n1cnnn1)N1CCCC1', 'cytotoxicity at 10 µM', '%', -9.24),
  ('CC1(C)CC(N(Cc2ccccc2)Cc2ncc[nH]2)CC(C)(C)N1', 'cytotoxicity at 10 µM', '%', 0.385),
  ('O=C(COCCOc1ccccc1)NC1CCN(c2ccccn2)CC1', 'cytotoxicity at 10 µM', '%', -4.56);

Which cytotoxicity at 10 µM value is on record for Cc1ccc(C(=O)N2CC(C)(C)[C@@](C)(O)C2)cc1N1CCNC1=O ?
-2.76

Which cytotoxicity at 10 µM value is on record for CCSc1ccc(C(=O)Nc2c(C)nn(C(C)C)c2C)cn1 ?
-24.4

Which cytotoxicity at 10 µM value is on record for CC(O)CN1CCC(CN(C)Cc2ccc(C#N)cc2)CC1 (stereo unspecified) ?
0.788

Which cytotoxicity at 10 µM value is on record for O=c1n(CCSCc2ccccc2Br)nc2ccccn12 ?
-3.95

Which cytotoxicity at 10 µM value is on record for O=C1CCCN1C1CCN(S(=O)(=O)CCOc2ccc(F)cc2)CC1 ?
5.94

###

- Experimental Protocol: Toxicity liver stage against HepG2, at 10uM
- Format: cell-based
- Parameters: test concentration 10 uM, cell line HepG2-A16-CD81EGFP
- Condition: human, HepG2-A16-CD81EGFP cells; read-out: INHIBITION
Metric Name: cytotoxicity at 10 µM (%)
Could you give me the number in %? Just the number is fine.

Please review the entries below; each comes with its answer.
INSERT INTO measurements (molecule, assay_result) VALUES
  ('Cc1noc(CN(Cc2cccs2)C2CC2)n1', -0.243),
  ('O=C(c1ccccn1)N1C[C@H]2CC[C@@H](C1)N(C(=O)CCC(F)(F)F)C2', 4.37);

Which cytotoxicity at 10 µM value is on record for O=C(c1ccc2c(c1)CCC2)N1CCn2ncnc2C1 ?
-5.26

Which cytotoxicity at 10 µM value is on record for Cc1occc1C(=O)N1CCn2c(COCC3CC3)cnc2C1C (configuration not stated) ?
7.02

Which cytotoxicity at 10 µM value is on record for NC(=O)Nc1cc(F)ccc1SCC(F)F ?
0.0687

Which cytotoxicity at 10 µM value is on record for CCOc1ccc(NC(=O)C2OC(c3cccs3)=NN2C(C)=O)cc1 (configuration not stated) ?
4.77

Which cytotoxicity at 10 µM value is on record for COC1COC2(CCN(Cc3ccc(Cl)cc3)CC2)C1 (configuration not stated) ?
2.2

Which cytotoxicity at 10 µM value is on record for Cn1cc(-c2cc(C(F)(F)F)n(CCCN)n2)cn1 ?
-6.11

Which cytotoxicity at 10 µM value is on record for CCc1cnc(C)nc1NCCN1CCCCCC1 ?
-10.8

Which cytotoxicity at 10 µM value is on record for CCC(=O)Nc1nnc(CCOc2ccc(OC)cc2)s1 ?
6.31

Which cytotoxicity at 10 µM value is on record for CN(C)C(=O)CN1CC[C@]2(CN(CC3CC3)C[C@H]2c2ccccc2)C1=O ?
1.46

Which cytotoxicity at 10 µM value is on record for CCc1nc(C2CCCN2Cc2nnc(C3CCC3)o2)no1 (configuration not stated) ?
1.48

Just for reference, ChEMBL document CHEMBL4513216 is where these values come from.
